Provide the recorded PBM binding z-score for the entries that follow.
Test system: PPARg DBDmut:RXRa IVT, anti-PPARg (DBD mutation: PPARg1 K132A/R137A, NR concentration 270 nM, RXRa partner concentration 90 nM)
Assay: PBM binding z-score (relative to random genomic background probes); higher = stronger binding; sequences stand for … in GC…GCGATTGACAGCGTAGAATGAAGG
One number for each entry.

Worked examples, 5 sequences total:
- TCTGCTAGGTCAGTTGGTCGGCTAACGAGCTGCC: -0.323
- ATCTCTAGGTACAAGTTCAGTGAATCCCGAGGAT: 0.611
- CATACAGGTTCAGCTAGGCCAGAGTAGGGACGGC: 0.171
- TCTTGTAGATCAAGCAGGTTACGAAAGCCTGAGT: -0.0946
- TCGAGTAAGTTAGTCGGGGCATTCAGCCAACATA: -0.534

Give one value of PBM binding z-score per listed sequence.
1. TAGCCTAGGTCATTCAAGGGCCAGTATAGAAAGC
2. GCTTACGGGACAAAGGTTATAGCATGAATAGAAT

## Output
0.0741
0.314

Give one value of PBM binding z-score per listed sequence.
1. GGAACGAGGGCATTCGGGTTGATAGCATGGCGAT
2. AGTTAAAGTTCAGGACGAGGTAACGTAAAGCACG
3. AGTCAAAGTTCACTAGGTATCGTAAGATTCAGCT
4. CGAACTTGGTCAGAACAGGACAGTGAAGGATGAT
5. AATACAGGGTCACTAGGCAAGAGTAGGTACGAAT
6. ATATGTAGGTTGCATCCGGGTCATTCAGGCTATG
7. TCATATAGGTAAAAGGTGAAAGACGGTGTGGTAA
8. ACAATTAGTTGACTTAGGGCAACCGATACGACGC

## Output
0.359
0.861
1.14
0.221
1.06
1.47
1.69
0.981

Give one value of PBM binding z-score per listed sequence.
1. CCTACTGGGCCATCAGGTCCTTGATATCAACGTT
2. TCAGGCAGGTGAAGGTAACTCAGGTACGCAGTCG
3. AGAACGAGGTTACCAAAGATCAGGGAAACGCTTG
4. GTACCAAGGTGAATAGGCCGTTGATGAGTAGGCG
5. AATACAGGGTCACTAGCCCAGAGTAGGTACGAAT
6. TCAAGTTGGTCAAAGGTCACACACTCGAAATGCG
7. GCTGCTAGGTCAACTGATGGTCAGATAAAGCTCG
8. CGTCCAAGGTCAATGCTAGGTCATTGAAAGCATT

## Output
1: 0.113; 2: -0.774; 3: 0.297; 4: -0.316; 5: 1.88; 6: 1.33; 7: -0.121; 8: 1.51

====

Provide the recorded PBM binding z-score for the entries that follow.
Tested on: RARb homodimer (NR concentration 270 nM)
Assay: PBM binding z-score (relative to random genomic background probes); higher = stronger binding; sequences stand for … in GC…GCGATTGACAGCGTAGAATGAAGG
Numbers only.

Worked examples, 5 sequences total:
- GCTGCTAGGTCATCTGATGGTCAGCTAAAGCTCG: 3.52
- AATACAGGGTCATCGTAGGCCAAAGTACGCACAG: 3.71
- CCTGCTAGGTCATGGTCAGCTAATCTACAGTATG: 3.24
- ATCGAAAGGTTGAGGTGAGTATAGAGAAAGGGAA: 1.24
- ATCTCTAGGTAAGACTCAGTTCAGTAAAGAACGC: 0.871

Give one value of PBM binding z-score per listed sequence.
1. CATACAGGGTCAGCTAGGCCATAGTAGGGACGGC
2. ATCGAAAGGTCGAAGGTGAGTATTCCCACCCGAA

## Output
[3.28, 2.4]

====

System: PPARa:RXRa (NR concentration 270 nM, RXRa partner concentration 90 nM)
Assay: PBM binding z-score (relative to random genomic background probes); higher = stronger binding; sequences stand for … in GC…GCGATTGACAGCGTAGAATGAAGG
If the reported PBM binding z-score equals or exceeds 2, assign true. If not, assign false.

Answered cases to consult:
- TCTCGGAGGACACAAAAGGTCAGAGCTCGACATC: true
- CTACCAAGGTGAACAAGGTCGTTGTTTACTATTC: true
- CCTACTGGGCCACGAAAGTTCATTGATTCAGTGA: true
- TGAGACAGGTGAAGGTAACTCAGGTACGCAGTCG: false
- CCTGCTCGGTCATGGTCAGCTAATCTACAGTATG: false
- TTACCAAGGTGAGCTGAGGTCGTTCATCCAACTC: false
- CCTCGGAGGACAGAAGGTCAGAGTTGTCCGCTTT: false
- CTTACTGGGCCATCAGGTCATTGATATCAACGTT: true

## Input Identify whether the reported PBM binding z-score of the following sequence is 2 or greater: `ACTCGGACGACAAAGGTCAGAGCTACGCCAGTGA`
## Output true

## Input Identify whether the reported PBM binding z-score of the following sequence is 2 or greater: `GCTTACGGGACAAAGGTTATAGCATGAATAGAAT`
## Output true

## Input Identify whether the reported PBM binding z-score of the following sequence is 2 or greater: `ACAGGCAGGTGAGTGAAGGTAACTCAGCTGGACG`
## Output false

## Input Identify whether the reported PBM binding z-score of the following sequence is 2 or greater: `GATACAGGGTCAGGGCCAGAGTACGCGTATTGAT`
## Output true

## Input Identify whether the reported PBM binding z-score of the following sequence is 2 or greater: `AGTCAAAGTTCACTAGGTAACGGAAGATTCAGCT`
## Output true

## Input Identify whether the reported PBM binding z-score of the following sequence is 2 or greater: `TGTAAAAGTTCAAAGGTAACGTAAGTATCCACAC`
## Output true

## Input Identify whether the reported PBM binding z-score of the following sequence is 2 or greater: `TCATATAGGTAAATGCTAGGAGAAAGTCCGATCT`
## Output false

## Input Identify whether the reported PBM binding z-score of the following sequence is 2 or greater: `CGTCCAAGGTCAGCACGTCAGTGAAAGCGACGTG`
## Output true

## Input Identify whether the reported PBM binding z-score of the following sequence is 2 or greater: `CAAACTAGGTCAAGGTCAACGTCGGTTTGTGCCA`
## Output true

====

Tested on: PXR homodimer (NR concentration 270 nM)
Assay: PBM binding z-score (relative to random genomic background probes); higher = stronger binding; sequences stand for … in GC…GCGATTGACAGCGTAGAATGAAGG
EXPERIMENTAL_ENDPOINT: PBM binding z-score
One number for each entry.

Worked examples, 5 sequences total:
• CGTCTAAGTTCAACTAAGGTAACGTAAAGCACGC = 4.82
• CGAACTAGGTCAGAACAGGACAGTGCAGGATGAT = 0.225
• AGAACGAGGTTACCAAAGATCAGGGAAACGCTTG = -0.605
• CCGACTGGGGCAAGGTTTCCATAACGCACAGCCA = -0.351
• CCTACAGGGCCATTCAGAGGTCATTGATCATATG = 2.91

Give one value of PBM binding z-score per listed sequence.
1. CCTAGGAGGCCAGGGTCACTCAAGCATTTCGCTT
2. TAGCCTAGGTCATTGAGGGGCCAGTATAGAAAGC
3. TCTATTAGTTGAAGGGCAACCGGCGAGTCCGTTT
4. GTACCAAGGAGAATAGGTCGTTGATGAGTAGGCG
5. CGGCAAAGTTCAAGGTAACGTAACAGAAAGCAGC
6. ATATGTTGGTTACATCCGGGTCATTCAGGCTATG

## Output
-0.346
-0.0238
0.705
-0.146
2.11
1.42

Give one value of PBM binding z-score per listed sequence.
1. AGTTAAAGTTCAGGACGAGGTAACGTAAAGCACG
2. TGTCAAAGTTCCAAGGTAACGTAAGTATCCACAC
3. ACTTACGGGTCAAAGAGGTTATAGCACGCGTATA

## Output
1. 1.51
2. 0.35
3. 2.73

====

System: RXRa homodimer (NR concentration 180 nM)
Test: PBM binding z-score (relative to random genomic background probes); higher = stronger binding; sequences stand for … in GC…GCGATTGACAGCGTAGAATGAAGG
EXPERIMENTAL_ENDPOINT: PBM binding z-score

Worked examples, 5 sequences total:
- TAACCTAGGTCAGATCGGGCCAGTATACGCTATA: 1.94
- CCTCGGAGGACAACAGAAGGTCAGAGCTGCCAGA: 1.54
- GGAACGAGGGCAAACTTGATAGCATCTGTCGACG: 1.17
- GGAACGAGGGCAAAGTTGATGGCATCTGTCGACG: 1.97
- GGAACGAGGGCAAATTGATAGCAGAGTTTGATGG: 1

Give one value of PBM binding z-score per listed sequence.
1. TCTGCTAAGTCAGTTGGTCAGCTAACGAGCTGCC
2. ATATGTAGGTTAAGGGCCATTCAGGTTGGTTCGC
3. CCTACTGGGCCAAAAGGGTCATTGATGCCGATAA
4. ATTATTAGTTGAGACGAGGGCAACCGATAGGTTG

## Output
-0.61
1.21
3.26
0.708

This collection of values is drawn from the supplement of paper PMC6555819.
